Every entry's value here was drawn from PubChem BioAssay (NCI).

- Test system: SN12C renal
- ASSAY: NCI tumour cell line growth inhibition, 48 h
VALUE KIND: TGI

| MOLECULE | ASSAY VALUE |
| --- | --- |
| Cc1ccc(OC2CC(n3cnc4ncnc(Cl)c43)OC2Oc2ccc(C)cc2)cc1 (stereo not drawn) | > 100 µM |
| CCN(C(=O)c1cc(F)ccc1Oc1cncnc1N1CC2(CCN(CC3CCC(NS(=O)(=O)CC)CC3)CC2)C1)C(C)C (stereo not drawn) | > 100 µM |
| Cn1/c(=N\S(=O)(=O)c2ccccc2)n(S(=O)(=O)c2ccccc2)c2ccccc21 | > 100 µM |

* * *

This section presents compounds with their documented TGI values.
- Test system: UO-31 renal
- ASSAY: NCI tumour cell line growth inhibition, 48 h

| COMPOUND | TGI |
| --- | --- |
| N#C/C(=C\NC(=S)c1ccncc1)c1nc2ccccc2s1 | > 100 µM |
| CSc1c(C#N)c(N)nc2c(N=Nc3ccc(Cl)cc3)c(N)nn12 | 4.42 µM |
| CC1(Cl)CCC2(CC(Br)=CC3OC32C)CC1Br (stereo not given) | 66.6 µM |
| CCCCCCOP(=O)(OCCCCCC)C(NC(=O)OCC)(C(F)(F)F)C(F)(F)F | 72.2 µM |
| CC1(C)Cc2cc(C(=O)O)c3c(c2C1=O)COCC3 | > 100 µM |
| O=C(Nc1nc2ncn(CCNCc3ccccc3)c2c(=O)[nH]1)c1ccccc1 | > 100 µM |
| c1csc(-c2cc(-c3cccs3)c(-c3cccs3)s2)c1 | > 100 µM |
| Nc1nc(-c2ccc(F)cc2)c(-c2ccc3ncccc3n2)s1 | > 25 µM |
| O=C1c2ccccc2C(=O)c2c1ccc(C1C(=O)c3ccccc3C1=O)c2-c1c(C2C(=O)c3ccccc3C2=O)ccc2c1C(=O)c1ccccc1C2=O | > 100 µM |
| CC(=O)OCC1OC(SC2OC(COC(C)=O)C(OC(C)=O)C(OC(C)=O)C2OC(C)=O)C(OC(C)=O)C(OC(C)=O)C1OC(C)=O (stereo not given) | > 100 µM |
